Molecular target: HLA-B*4501 (human)
Test: competition vs labelled reference peptide on HLA class I
quantity: pIC50
# log scale: pIC50 equals minus log10 of the concentration in mol/L

[in] So what's the measured pIC50 for this one? EEGACQPCPI [EEGACQPCPI (Her2/neu position 619, 10-mer)]
[out] 6.40
